assay: yeast display, Sf9 membrane polyspecificity reagent, FACS + sequencing; frameworks hold sequencing errors
readout label: polyreactivity (PSR sort gate)

Below, each entry is followed by its recorded polyreactivity (PSR sort gate) result.
1. QVQLVESGGGLVQAGGSLRLSCAASGFTIRSYVMGWYRQAPGKERELVAAIRRSGGSTYYADSVKGRFTISRDNAKNTVYLQMNSLKPEDTAVYYCAVGARWYWSYYWGQGTQVTVSS; high polyreactivity
2. QVQLVETGGGLVHAGGSLRLSCAASGFIFVVNAMGWYRQAPGKERELVAAITRNGGSTYYADSVKGRFSISRDNEKNTVYLQMNSLKPEDTAVYYCATYVRRAPSTFDVDYWGLGTQVTVSS; high polyreactivity
3. QVQLVESGGGLVQAGGSLRLSCAASGRILYYYAMGWYRQAPGKERELVAAINSSGGSTYYADSVKGRFTISRDNAKNTVYLQMNSLKPEDTAVYYCAALRGNVLWYPPSYFRYDYWGQGTQVTVSS; high polyreactivity
4. QVQLVESAGGLFQEGGSLRVSCAASGSTFSYYDMGGYRQAPGKERELVAAINSTGITTYADSVKGRFTISRDNAKNTVYLQMNSLKPEDTAVYYCAAYHNYWGPYVWEEDYWGQGTQVTVSS; low polyreactivity

Now consider a different sequence.
query: Would you mind telling me what polyreactivity (PSR sort gate) value was observed for `QVQLVESGGGLVQAGGSLRLSCAASGFTFYSNAMGWYRQAPGKERELVAAITSGGNTNYADSVKGRFTISRDNAKNTVYLQMNSLKPEDTAVYYCAAYPPSQRAEYDFWGQGTQVTVSS` ?
result: low polyreactivity

Numbers sourced from the nanobody polyreactivity screen of Harvey et al. (2022).
